# Tested on: A549 NSCLC
# ASSAY_OVERVIEW: NCI tumour cell line growth inhibition, 48 h
Listed compounds paired with reported TGI

Past entries and their recorded results:
INSERT INTO results (compound, study_target, meas_value) VALUES
  ('COc1ccc(C/C(C)=C(/c2ccc(OCCN3CCCCC3)cc2)c2ccc(OC(=O)NCc3ccccc3)cc2)cc1', 'A549 NSCLC', '0.821 µM'),
  ('COC(=O)c1cc(=O)[nH]c(=O)[nH]1', 'A549 NSCLC', '> 100 µM'),
  ('COC(=O)C1CCC(=S)N1C(=O)c1ccccc1 (stereo not drawn)', 'A549 NSCLC', '> 100 µM'),
  ('Cc1ccc(S(=O)(=O)c2c(COC(=O)c3cccc(C)c3)c(-c3ccccc3)nn2C)cc1', 'A549 NSCLC', '> 100 µM'),
  ('CC(=O)Nc1ccc(S(=O)(=O)N/N=C/CN2C(=O)c3ccccc3C2=O)cc1', 'A549 NSCLC', '> 100 µM'),
  ('CCCCOC(=O)N1CCN(/[N+]([O-])=N/Oc2ccc([N+](=O)[O-])cc2[N+](=O)[O-])CC1', 'A549 NSCLC', '64.2 µM'),
  ('CSC1=C(N)C(=O)c2[nH]cc(CO)c2C1=N', 'A549 NSCLC', '0.331 µM'),
  ('CCCCOC(=O)C(NC(C(=O)OCCCC)c1cc(C(C)(C)C)c(O)c(C(C)(C)C)c1)c1cc(C(C)(C)C)c(O)c(C(C)(C)C)c1 (stereo not drawn)', 'A549 NSCLC', '> 100 µM'),
  ('CC1=C(c2cccc(O)c2)[C@H](c2ccc(OCCN3CC(CF)C3)cc2)Oc2ccc(O)cc21', 'A549 NSCLC', '23.8 µM'),
  ('N/N=C(/C(=O)Nc1cccc(Cl)c1)C(C(=O)c1ccc(O)cc1O)C1OC(=O)c2ccccc21 (stereo not drawn)', 'A549 NSCLC', '> 100 µM');

Task item: Tell me the measured TGI of COc1ccc(/C=C/c2cc(OC)c(OC)c(OC)c2)cc1 , please.
Reply: > 100 µM

Task item: Tell me the measured TGI of C[C@H](NC(=O)C(Cc1ccccc1)(Cc1ccc(O)cn1)NC(=O)c1ccccc1)c1ccccc1 (stereo partly drawn) , please.
Reply: 31.6 µM

Task item: Tell me the measured TGI of O=C(Nc1ccc(Br)cc1F)c1cc(I)ccc1O , please.
Reply: > 100 µM

Task item: Tell me the measured TGI of Cc1ccc(OCC2OC(n3cnc4nc(N)nc(Cl)c43)CC2Oc2ccc(C)cc2)cc1 (stereo not drawn) , please.
Reply: 58.3 µM

Task item: Tell me the measured TGI of O=C1NC(Nc2ccccc2)=NC(C(F)(F)F)(C(F)(F)F)N1 , please.
Reply: > 100 µM

Task item: Tell me the measured TGI of O=C1C(c2ccccc2)=C(O)c2cccc3cccc1c23 , please.
Reply: > 100 µM

Task item: Tell me the measured TGI of COc1c(O)c(C=O)c2c(O)c(-c3c(C)cc4c(C(C)C)c(OC)c(O)c(C=O)c4c3O)c(C)cc2c1C(C)C , please.
Reply: 11.6 µM

Task item: Tell me the measured TGI of C=C1C(O)C2C(=C(CC)C13CC3)C(=O)C(C)(C)C2OC (stereo not drawn) , please.
Reply: > 100 µM
